# Tested on: Plasmodium berghei
# test name: Screen against P. berghei liver stage (PbLuc), transformed with Luciferase, at 10uM
# Assay type: functional, HepG2
# condition context: tested at 10 uM
The whole screen tested about 69,000 compounds, of which about 8,600 (12%) showed an effect of 50% or more. The full list was thinned out, with strong results kept by preference.
measured quantity: INHIBITION (%)

> print(dat)
                                   compound              system  recorded.value
1         O=C(Nc1nccs1)NC1CCN(Cc2ccccn2)CC1  Plasmodium berghei            17.4
2             COCCN1CC(=O)N(C(C)C)C(C)(C)C1  Plasmodium berghei            -1.3
3  CC(=O)Nc1cccc(CN2CCCC2C(=O)Nc2nccs2)c1 (stereo unspecified)  Plasmodium berghei            34.6
4  O=C(C1CCCCN1Cc1nccn1CC(F)(F)F)N1CCCC1 (stereo unspecified)  Plasmodium berghei            58.9
5  O=C(Nc1nccs1)C1CCCN1Cc1ccccn1 (stereo unspecified)  Plasmodium berghei            87.6
6       CCc1ccsc1C(=O)N1CCCN(Cc2nccn2CC)CC1  Plasmodium berghei           30.65

---

# System: Plasmodium berghei
# test name: Screen against P. berghei liver stage (PbLuc), transformed with Luciferase, at 10uM
# Type: functional, HepG2
# condition context: tested at 10 uM
Screen size: about 69,000 compounds; about 8,600 (12%) showed an effect of 50% or more. The list comes from a sample in which strong results are over-represented; it also holds close analogues and randomly drawn compounds.
measured quantity: INHIBITION (%)

> print(dat)
                                    compound  measured.quantity  recorded.value
 1               COc1ncnc2c1CCN(Cc1cccs1)CC2         INHIBITION          -0.804
 2    Cc1nc(NC(=O)c2c(-n3cnnn3)sc(C)c2C)sc1C         INHIBITION            92.5
 3    CCNc1ncc(C(=O)NCc2csc(-c3cnccn3)n2)cn1         INHIBITION           -10.5
 4    CCOC(=O)NCCNC(=O)c1cc2ccccc2nc1N1CCCC1         INHIBITION           -7.36
 5    CCNc1ncc(C(=O)NCc2csc(-c3ncccn3)n2)cn1         INHIBITION            62.2
 6  Fc1ccccc1C1NCCc2cc3c(cc21)OCCO3 (stereo not drawn)         INHIBITION             2.6
 7  Cc1ccc(CN2C[C@@H]3CC[C@H]2CN(Cc2[nH]cnc2C)C3)o1         INHIBITION            24.9
 8  CC1c2ncc(CN3CCN(C)CC3)n2CCN1Cc1ccsc1 (stereo not drawn)         INHIBITION            27.3
 9       CC(C)CNC(=O)c1c(-n2cnnn2)sc2c1CCCC2         INHIBITION            68.1
10  O=C(NCC1CCCO1)c1c(-n2cnnn2)sc2c1CCC2 (stereo not drawn)         INHIBITION           -1.58
11  Cc1nccc(C2CCCN(C(=O)c3cncnc3)C2)n1 (stereo not drawn)         INHIBITION           -38.3
12  COc1ccccc1OCCN(C)Cc1c(C2CC2)[nH]c2ncccc12         INHIBITION            10.7
13      CC(C)CCNC(=O)c1c(-n2cnnn2)sc2c1CCCC2         INHIBITION            23.4
14  Cc1nc[nH]c1CN1C[C@H]2CC[C@@H](C1)N(C(=O)CCNS(C)(=O)=O)C2         INHIBITION            26.8
15  Cc1nc(C2CN(Cc3ccc(F)cc3Br)CCO2)no1 (stereo not drawn)         INHIBITION            11.8
16  CC1c2ncc(CN3CCN(C)CC3)n2CCN1Cc1ccccn1 (stereo not drawn)         INHIBITION              53
17     Cc1cc(F)ccc1CNCc1cccc(C(=O)N2CCCC2)c1         INHIBITION            7.67
18       CC(=O)Nc1sc2c(c1C(=O)O)CCc1ccccc1-2         INHIBITION            11.1
19     CC(C)(C)NC(=O)COc1ccc(CNCc2ccccn2)cc1         INHIBITION           -6.39
20  CSCCCN1C[C@@H]2CC[C@H]1CN(Cc1[nH]cnc1C)C2         INHIBITION            45.8
21  Cc1cccc(CN2C[C@@H]3CC[C@H]2CN(Cc2[nH]cnc2C)C3)n1         INHIBITION            58.5
22  c1cnc(CC2COCCN(C3CCCCC3)C2)cn1 (stereo not drawn)         INHIBITION              14
23  Cc1nc[nH]c1CN1C[C@H]2CC[C@@H](C1)N(C(=O)CCc1cnn(C)c1)C2         INHIBITION            40.1
24  Cc1nc(CN2CCN(CC(O)CN3CCOCC3)CC2)oc1C (stereo not drawn)         INHIBITION            4.34
25  CC1c2ncc(Cn3cccn3)n2CCN1Cc1ccc(F)cc1 (stereo not drawn)         INHIBITION            54.8
26  CCN1CC2(CC1=O)CN(C(=O)NC(C)C)CCN(C(=O)NC(C)C)C2         INHIBITION            27.5
27  O=C(CCc1ccccc1Cl)NS(=O)(=O)c1ccc2c(c1)OCCO2         INHIBITION         -19.265
28  CSCc1nc(CCNC(=O)C2CCCN(C(C)=O)C2)cs1 (stereo not drawn)         INHIBITION           -90.8
29  CN(C)C[C@H]1OC[C@@H]2CCN(C(=O)c3cccn3C)C[C@@H]21         INHIBITION             4.2
30  CSc1ccccc1CN1C[C@@H]2CC[C@H]1CN(Cc1[nH]cnc1C)C2         INHIBITION            60.3
31  Clc1ccc(C2NCCc3cc4c(cc32)OCCO4)cc1 (stereo not drawn)         INHIBITION            45.6
32  CC1c2ncc(Cn3cccn3)n2CCN1Cc1cccnc1 (stereo not drawn)         INHIBITION           -9.26
33  CC1c2ncc(CNC(=O)C3CC3)n2CCN1Cc1ccccn1 (stereo not drawn)         INHIBITION           -88.3
34  Cc1nc(CN2CCCC(Cn3cncn3)C2)nc2ccccc12 (stereo not drawn)         INHIBITION           29.95
35   Cn1cc(CCNC(=O)c2cc3ccccc3nc2N2CCCC2)cn1         INHIBITION            59.4
36           CCCNC(=O)c1c(-n2cnnn2)sc2c1CCC2         INHIBITION            26.1
37    Cc1csc(N2CCCN(C(=O)C3(C#N)CCCC3)CC2)n1         INHIBITION          -33.32
38  CCN(CC)S(=O)(=O)c1ccc2c(c1)N(Cc1cccnc1)C(=O)CS2         INHIBITION            -3.5
39  O=C([C@H]1CC[C@@H]2[C@@H](CCN2Cc2ccc(F)cc2)O1)N1CCCO1         INHIBITION           -11.6
40  CC1c2ncc(Cn3cccn3)n2CCN1Cc1ccccn1 (stereo not drawn)         INHIBITION            58.4
41  Cc1nc(NC(=O)c2c(-n3cnnn3)sc3c2CCCC3)sc1C         INHIBITION            93.7
42   Cc1ccnc(C2COCCN2C)n1 (stereo not drawn)         INHIBITION           8.905
43          Cc1sc(-n2cnnn2)c(C(=O)NC(C)C)c1C         INHIBITION            21.2
44         O=C(CC1CCN(c2cccnn2)CC1)NC1CCOCC1         INHIBITION            3.48
45  COC[C@H]1CN(CC2CC2)C(=O)[C@@H]2CCN(Cc3ccoc3)CC[C@H]12         INHIBITION            11.3
46  CC1c2ncc(CN3CCN(C)CC3)n2CCN1Cc1cccnc1 (stereo not drawn)         INHIBITION            34.8
47          COCCNCc1ccc(OCC(=O)NC(C)(C)C)cc1         INHIBITION            51.6
48  CC1c2ncc(Cn3cccn3)n2CCN1c1ncccn1 (stereo not drawn)         INHIBITION            23.1
